- System: MS2 coat protein
- Test Details: apparent KD of MS2 coat protein; designed switch direction (-1 OFF switch, 1 ON switch): -1; higher = weaker reporter binding
- Condition Parameters: Eterna round: R95; input ligand: microRNA oligo, concentration not stated
apparent KD of MS2 coat protein for assorted sequences

Sequence Code	Output Unit	apparent KD of MS2 coat protein
AAGAAACAUGAGGAUCACCCAUGUGAGGAUAUGAAAAAGAAAAGAAAAGAAAGAAUAAUCAGAAGGCACAAAGG [Mat - Mod of Hog D11] (puzzle: Exclusion 1)	nM	34.3
GCGUGACAUGAGGAUCACCCAUGUGAGGAUAUCUGGAUAAUCUUUAUUUUAGAUAUCCAGAGAAGGCACAUGCU [Ex1-3: 3Z] (puzzle: Exclusion 1)	nM	170
AAGCCACAUGAGGAUCACCCAUGUCAGGAUAUCUCGAAAAGCAUAGAAAUAUGCGAAGAGAGAAGGGACUACUC [ChP Ext 10-04-2015 #4] (puzzle: Exclusion 1)	nM	42.7
UUACAAUGUCGCUUACAAGCUUUUUGCUCGUCUUAUAUUACAUGAGGAUCACCCAUGUAGAUCAUGUGGCGUGACCU [JL ViennaUCT Maridi mod 9] (puzzle: Sensor v3, turn-off variant 2)	nM	23.3
AAUAACAGAGGAUAUACUGUUUUAUGUAUUUAUUAUUUUGAACAUGAGGAUCACCCAUGUAGAAGGCUGAUUAA [JMF 48] (puzzle: Exclusion 2)	nM	29.6
ACCUCACAUGAGGAUCACCCAUGUUAGGAUAUCUCGGUGCCCUGCAGGCAGUGGCACCAGAGAAGGAACGUGCA [Anbearqu] (puzzle: Exclusion 1)	nM	17.2
AAAGAACUAGGAUAUCGCGCUACAGACAUGAGGAUCACCCAUGUAAUCGCAUGUCAAGUUUGAGAAGGAGUGAAGA [Usissodi] (puzzle: Exclusion 5)	nM	11.9
UGGUAACAUGAGGAUCACCCAUGUCAGGAUAUCAGUAAGAAUAGAUUAGAGUAGAAGAUGAGAAGGGACUAUAU [Excluse me! 6 - Jieux - Exclusion 1] (puzzle: Exclusion 1)	nM	33.8
UAGGAGUCAGGAUAUGCGAGAGAUGGAAGAAAGGGAAGAGAGCAGAAGGGACAUGAGGAUCACCCAUGUAAGGA [JR_Exclu4_Sub090] (puzzle: Exclusion 4)	nM	35.7
AGGAGCAGAGGGAGAUCCAACAUGAGGAUCACCCAUGUCUCAUAAGCUUUUUGCUCAUCUUAUUGUACCUUGGUGCU [Mat - Sensor v3 - turn-off var 1 - JL Mod - D26] (puzzle: Sensor v3, turn-off variant 1)	nM	14.3
AUCUCCUCUGUCAGGAUAUAUAAACUGUUGCAGUGGUAGAAGGGACAUGAGGAUCACCCAUGUAAUAUAAAUAA [Bivege] (puzzle: Brourd's mod of Exclusion 4)	nM	26.6
CUUUUGUGAGGAUAUUUGUAGUAAAUAAAUAAAAUUACUACUGAGAAGGCACAUGAGGAUCACCCAUGUUCCUC [salish99_ex4_r3_042] (puzzle: Exclusion 4)	nM	27.7
GUUUGAUGAGGAUAUCGAGGUUAGUACAUGAGGAUCACCCAUGUUAUCCAGGUGUCGGUUCGAGAAGGUAUUGGAC [LRO-Ex5-15] (puzzle: Exclusion 5)	nM	18.6
CAUGAUUUUCGGAAAAUGUACAUGAGGAUCACCCAUGUGACGAGUUACAUGAAAAACAAGCUUUUUGCUCGUCUUAU [Sensor v3 - Turn-off variant 1 - 11] (puzzle: Sensor v3, turn-off variant 1)	nM	24.8
AAGAGUGCAGGAUAUACUUGAUAGGGUAAGGUGAGUGAGGGACAUGAGGAUCACCCAUGUAGAAGGGCAGAGAG [JR_Exclu2_Sub058] (puzzle: Exclusion 2)	nM	33.4
UUACCAUGCCGCCUAAUAGCUUUUUGCUCGUCUUAUAUUACAUGAGGAUCACCCAUGUAGAUCAUGUGGCGUGACCU [JL ViennaUCT Maridi mod 2] (puzzle: Sensor v3, turn-off variant 2)	nM	39.6
GUGUAGGCAGGAUAUACAUGAGGAUCACCCAUGUGAAUAAGAUAGAAUAAGAUAAAGUGUAGAAGGGUUAGUGU [Excluse me!!! 23 - Jieux - Exclusion 3] (puzzle: Exclusion 3)	nM	31.7
AGGUGACAUGAGGAUCACCCAUGUAAGGAUAUACGGUUAGUGGAGAGUUGGAGGAGAGGUAGAAGGUACGGAGC [JR_Exclu1_Sub060] (puzzle: Exclusion 1)	nM	174
UGGUAACAUGAGGAUCACCCAUGUCAGGAUAUCAGUAAGAAGAGAUUAGAGUAGAAUAUGAGAAGGGACUAUAG [Excluse me! 1 - Jieux - Exclusion 1] (puzzle: Exclusion 1)	nM	35.8
GGUCAAGAACAGAUCCGCGCUGCCCUCGACCGCUCAUUUACAUGAGGAUCACCCAUGUUUUUUGCUUGUCUUGUUAC [Vezageis] (puzzle: Sensor v3, turn-off variant 2)	nM	57

###

- Tested on: MS2 coat protein
- Test Details: apparent KD of MS2 coat protein; designed switch direction (-1 OFF switch, 1 ON switch): -1; higher = weaker reporter binding
- Condition Parameters: input ligand: none
apparent KD of MS2 coat protein for assorted sequences
Measurement Label: apparent KD of MS2 coat protein

Sequence Code	Target Or System	Measurement Label	Recorded Measurement
GCACGGAAUGUAGGAUAUUAGUGCGAUUAGCACUGAGAAGGACAUGAGGAUCACCCAUGUAACUCAAUAAUAAACCUUCCGUGC [Eli exng1 - 045] (Eterna round: R96, puzzle: Exclusion NG 1)	MS2 coat protein	apparent KD of MS2 coat protein	0.0122 µM
AAGUAUCAUGUAGGAUAUGCUAACCGAACGUUAGCAGAAGGACAUGAGGAUCACCCAUGUUCUCAUCUGUAAGAACAGAUGUCU [Ex NG1 #6] (Eterna round: R96, puzzle: Exclusion NG 1)	MS2 coat protein	apparent KD of MS2 coat protein	0.0155 µM
AUAAUGUGAGGAUAUCAGUCGACUAGCCUCGGCUAGUCGACUGAGAAGGCACAUGAGGAUCACCCAUGUGUUUC [E4/15-A2] (Eterna round: R97, puzzle: Exclusion 4)	MS2 coat protein	apparent KD of MS2 coat protein	0.0184 µM
GCACAGGCAGGAUAUACAUGAGGAUCACCCAUGUGAUCCCUUAAGUACAAAAGUACAAGUAGAAGGGCCUGUGC [Omei Ex3 Model Bachelor's Dilema v43] (Eterna round: R97, puzzle: Exclusion 3)	MS2 coat protein	apparent KD of MS2 coat protein	0.916 µM
UAAAAGCGAGGAUAUACAAACAGGUCCAAAACAUGUCUUGGACAUGAGGAUCACCCAUGUAGAAGGCGUAAAAG [Anleain] (Eterna round: R97, puzzle: Exclusion 2)	MS2 coat protein	apparent KD of MS2 coat protein	0.0906 µM

###

- Tested on: MS2 coat protein
- Test Details: apparent KD of MS2 coat protein; designed switch direction (-1 OFF switch, 1 ON switch): 1; higher = weaker reporter binding
- Condition Parameters: Eterna round: R95; input ligand: microRNA oligo, concentration not stated
Could you label it true if measured apparent KD of MS2 coat protein is 100 nM or higher, and false otherwise?

Sequence Code	Class Assignment
UGUAAACAUGAGGAUCACCCAUGUAAUAUAAUGGGAGGAUAUCUGAAUUAAUUAAAUUAAGGAGAAGGCCUAAUGU [Mat - Same State 1 - Mod of Eli - D47] (puzzle: Same State 1)	true
UUUAGUAGCGGGCAGGAUAUGUAUUAAAAUACAUGAGGAUCACCCAUGUGCGGGUAUAACACCCGACAGAAGGGCCAAUCGCUAC [Laonerce - 8] (puzzle: Same State 2)	true
AAUGUCUCACAUGAGGAUCACCCAUGUCUUUGGAUGAAGCUUUUUGCUCGUCUUCAUUUUGCUCGUCUUACCCAUGU [SBY_1] (puzzle: Sensor for hsa-mir-208a version 2)	false
UGGCAACAUGAGGAUCACCCAUGUCAAACUAAUCGAGGAUAUGGGAACGAACAAGAGAAACUAGAAGGCGAACUUG [Altered State 1-11 - Jieux - Same State 1] (puzzle: Same State 1)	true
UCUAGACAUGAGGAUCACCCAUGUCGAUAUGACACAGGAUAUCGGUACUCAUAGAGUACGCGAGAAGGGUGACUUC [Same State 1 - Mod of Vinnie Gere v.3] (puzzle: Same State 1)	true
GGCACAAAAGCACAGGAUAUGCAAAAGAACACAUGAGGAUCACCCAUGUAGCCUAAUAAAGGGCAGCAGAAGGGUGGGACUGCCA [Quaat] (puzzle: Same State 2)	true

###

apparent KD of MS2 coat protein for assorted sequences
- System: MS2 coat protein
- Test Details: apparent KD of MS2 coat protein; designed switch direction (-1 OFF switch, 1 ON switch): -1; higher = weaker reporter binding
- Condition Parameters: input ligand: microRNA oligo, concentration not stated

Sequence Code	apparent KD of MS2 coat protein, µM
AUCAGCUCGUGAGGAUAUAUAUACAUGAGGAUCACCCAUGUAAGAUCAGGCUUCGGCCAAUGUAUAUAGAAGGCACGAGCUGAU [ENG2/11-A3] (Eterna round: R96, puzzle: Exclusion NG 2)	0.535
UUUAAGGUAAUUAAGAUCACAUGAGGAUCACCCAUGUAUAUAUAGGAUAUCAGCUCGUUUAGAGCUGAGAAGGAUAUAUACAUA [ExNG3/6-C2] (Eterna round: R96, puzzle: Exclusion NG 3)	0.178
AAAAGAACAUGAGGAUCACCCAUGUGAACCUUCGUUCGACCUCAGGAUAUCCGCCACCGUCCGCAGGAGAAGGGAGGUAAAAUA [Quraa] (Eterna round: R96, puzzle: Exclusion NG 3)	0.0456
GAACUAAAGCAAAGCUUUAGUCGUACAUGAGGAUCACCCAUGUAGGAUAUGGUAGGCAAAGCAUACCAGAAGGACAGAGUGAUC [Mat - Exclusion NG 3 - Mod of JL - D63] (Eterna round: R96, puzzle: Exclusion NG 3)	0.134
AGCUGUGGCCGAGGAUAUCUACCUUCAAUAACCGAAAUAUAAUCGGACAUGAGGAUCACCCAUGUAGAGAAGGCGGUCUCAGCA [Eli eng2 - 086] (Eterna round: R96, puzzle: Exclusion NG 2)	0.0109
